FKBP12 (Homo sapiens): recorded log10(Ki) for assorted molecules
Sequence (P62942 whole entry, species assumed): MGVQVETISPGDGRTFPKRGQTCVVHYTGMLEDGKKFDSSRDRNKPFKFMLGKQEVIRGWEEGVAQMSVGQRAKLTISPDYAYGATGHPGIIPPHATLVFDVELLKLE
Please keep in mind that the values are log10 of Ki expressed in nM.

COC1CC2CCC(C)C(O)(O2)C(=O)C(=O)N2CCCCC2C(=O)OC(C(C)CC2CCC(O)CC2)CC(=O)C(C)C=C(C)C(O)C(OC)C(=O)C(C)CC(C)C=CC=CC=C1C (stereo not drawn) | 0.40
COC1CC2CCC(C)C(O)(O2)C(=O)C(=O)N2CCCCC2C(=O)OC(C(C)CC2CCC(O)CC2)CC=C(C)C(O)CC(=O)C(C)CC(C)C=CC=CC=C1C (stereo not drawn) | 0.90

So what does the record say about log10(Ki) for CO[C@H]1C[C@@H]2CC[C@@H](C)[C@@](O)(O2)C(=O)C(=O)N2CCCC[C@H]2C(=O)O[C@H]([C@H](C)C[C@H]2CC[C@H](O)CC2)CC(O)CC(=O)[C@H](C)/C=C(\C)[C@@H](O)CC(=O)[C@H](C)C[C@H](C)/C=C/C=C/C=C/1C (stereo partly drawn) ? 0.81

So what does the record say about log10(Ki) for C\C1=C/C=C/C=C/[C@@H](C)C[C@@H](C)C(=O)[C@H]2CC[C@@H](CC2)OC(=O)[C@@H]2CCCCN2C(=O)C(=O)[C@]2(O)O[C@@H](CC[C@H]2C)C[C@@H]1O ? 2.66

So what does the record say about log10(Ki) for COC1CC2CCC(C)C(O)(CC(=O)N3CCCCC3C(=O)OC(C(C)CC3CCC(O)CC3)CC(=O)C(C)CC(C)C=CC=CC=C1C)O2 (stereo not drawn) ? 2.57
